Cited source for all entries: ChEMBL document CHEMBL1133442

Species: Homo sapiens
ASSAY_INFO: Inhibition of calcium ionophore (A-23187) stimulated leukotriene B4 (LTB4) formation in human neutrophils at 390 nM
Type: functional
pIC50: −log10 of the molar value.
ENDPOINT: pIC50

QUERY_SMILES: CC(CCCC(=O)O)(c1ccc(OCc2ccc3ccccc3n2)cc1)c1ccc(OCc2ccc3ccccc3n2)cc1
ENDPOINT: pIC50
OBSERVED_VALUE: 7.37
//
QUERY_SMILES: CC(CCC(=O)O)(c1ccc(OCc2nc3ccccc3s2)cc1)c1ccc(OCc2nc3ccccc3s2)cc1
ENDPOINT: pIC50
OBSERVED_VALUE: 7.30

A. CC(CCC(=O)[O-])(c1ccc(OCc2ccc3ccccc3n2)cc1)c1ccc(OCc2ccc3ccccc3n2)cc1.[Na+]
B. O=C([O-])CC(c1ccc(OCc2ccc3ccccc3n2)cc1)c1ccc(OCc2ccc3ccccc3n2)cc1.[Na+]
Would you kindly point out which of A and B has the smaller pIC50 figure? Return value: the label identifying the chosen record.
B
